assay: physchem; conditions: ethanol/propylene glycol/acetate buffer, pH 4, organic solvent or mixture, Solubility in parenteral vehicle, vehicle 7: Ethanol 10, Propylene Glycol 15 %v/v, 0.05 M Acetate buffer pH 4.0 qs
Measurement kind: solubility (µg/mL)
Report the value in µg/mL with no unit label.

Prompt line: Look up solubility: COc1ccc(C[C@H]2NC(=O)/C=C/C[C@@H]([C@H](C)[C@@H](OC(=O)CN)[C@@H](Cl)c3ccccc3)OC(=O)[C@H](CC(C)C)OC(=O)C(C)(C)CNC2=O)cc1Cl
Response line: 4320

###

Assay: physchem
Details: ethanol/propylene glycol/citrate buffer, pH 4, organic solvent or mixture, Solubility in parenteral vehicle, vehicle 1: Ethanol 10, Propylene Glycol 10 %v/v, 0.05 M Citrate buffer pH 4.0 qs
Description: Table 4. Solubility of cryptophycin glycinate 12 in various parenteral vehicles.
Measurement kind: solubility (µg/mL)
State the answer as a number, implicitly in µg/mL.

Prompt line: Data request, read-out solubility, for COc1ccc(C[C@H]2NC(=O)/C=C/C[C@@H]([C@H](C)[C@@H](OC(=O)CN)[C@@H](Cl)c3ccccc3)OC(=O)[C@H](CC(C)C)OC(=O)C(C)(C)CNC2=O)cc1Cl
Response line: 110

###

test: physchem; type: physicochemical; details: water, pH 4, water; pH of 4; read-out: aqueous solubility value
Measurement kind: solubility

Prompt line: Look up solubility: COc1ccc(C[C@H]2NC(=O)/C=C/C[C@@H]([C@H](C)[C@@H](O)[C@@H](Cl)c3ccccc3)OC(=O)[C@H](CC(C)C)OC(=O)C(C)(C)CNC2=O)cc1Cl [Compound 1, cryptophycin 55]
Response line: ~50 µg/mL

###

experiment: physchem; conditions: polysorbate 80/acetate buffer, pH 4, Solubility in parenteral vehicle, vehicle 5: Polysorbate 80 0.5 (w/v), 0.05 M Acetate buffer pH 4.0 qs
Measurement kind: solubility
# answer = value followed by unit

Prompt line: // returns reported solubility for input COc1ccc(C[C@H]2NC(=O)/C=C/C[C@@H]([C@H](C)[C@@H](OC(=O)CN)[C@@H](Cl)c3ccccc3)OC(=O)[C@H](CC(C)C)OC(=O)C(C)(C)CNC2=O)cc1Cl
Response line: 2210 µg/mL
